Ref: patent US20160187342

# assayed-target: T1, EN2 (Engrailed-2) (UniProt P19622 P19622:1-333)
# T1 sequence: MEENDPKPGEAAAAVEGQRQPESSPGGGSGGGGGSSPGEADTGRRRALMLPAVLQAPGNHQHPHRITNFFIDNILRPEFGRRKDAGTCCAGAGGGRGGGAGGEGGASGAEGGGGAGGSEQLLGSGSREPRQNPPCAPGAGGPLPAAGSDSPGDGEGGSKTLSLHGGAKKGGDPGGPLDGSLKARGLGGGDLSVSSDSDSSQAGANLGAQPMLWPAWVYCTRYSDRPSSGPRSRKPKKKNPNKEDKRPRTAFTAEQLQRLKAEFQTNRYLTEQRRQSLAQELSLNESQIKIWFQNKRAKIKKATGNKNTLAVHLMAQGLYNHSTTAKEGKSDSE
# measurement-description: FAM fluorescence of protein-bound aptamer
# run-parameters: tags: (His)6-tag, pET28a, E. coli BL21(DE3); label: FAM (Kd assay); poly A linker to gold surface (biosensor); hairpin, loop 8 bases, stem 14 bp
# Procedure: Then, in order to compare binding strengths between the EN2 protein and each of the DNA aptamers, a dissociation constant (Kd) between the EN2 protein and each of the DNA aptamers was measured. In this case, fluorescein amidite (FAM) was attached to the DNA aptamer as a marker, and an amount of the DNA aptamer bound to the protein was measured according to a fluorescent signal of FAM.
assay-metric: Kd (nM)
Number in nM, nothing else.

Prompt: For CGTGTAATTACCTCCAGAAGGAGAGGTAATTACACG (structured_DNA) [hpDNA3] , write its Kd.
Completion: 66.3
